So I've got a bunch of molecules here, and I need their melting point values.

{"columns": ["molecule", "melting point"],
 "data": [
  ["CCOC(=O)C=C1SC(N2N=C(c3ccccc3)CC2c2ccc(Cl)cc2)=NC1=O (centres unmarked) [Compound 7l]", "251 to 253 °C"],
  ["CCOC(=O)C=C1SC(N2N=C(c3ccccc3)CC2c2ccc(OCc3ccccc3)c(OC)c2)=NC1=O (centres unmarked) [Compound 7d]", "202 to 204 °C"],
  ["CCOC(=O)C=C1SC(N2N=C(c3ccc(OC)cc3)CC2c2ccc(F)cc2)=NC1=O (centres unmarked) [Compound 7i]", "210 to 212 °C"],
  ["CCOC(=O)C=C1SC(N2N=C(c3ccccc3)CC2c2ccc(OC)cc2)=NC1=O (centres unmarked) [Compound 7c]", "236 to 238 °C"],
  ["CCOC(=O)C=C1SC(N2N=C(c3ccc(OC)cc3)CC2c2ccc(Cl)cc2)=NC1=O (centres unmarked) [Compound 7m]", "220 to 222 °C"],
  ["CCOC(=O)C=C1SC(N2N=C(c3ccc(OC)cc3)CC2c2ccc(Cl)cc2Cl)=NC1=O (centres unmarked) [Compound 7f]", "> 260 °C"],
  ["CCOC(=O)C=C1SC(N2N=C(c3ccccc3)CC2c2ccc(Br)cc2)=NC1=O (centres unmarked) [Compound 7a]", "242 to 244 °C"],
  ["CCOC(=O)C=C1SC(N2N=C(c3ccccc3)CC2c2ccc(C)cc2)=NC1=O (centres unmarked) [Compound 7b]", "226 to 228 °C"],
  ["CCOC(=O)C=C1SC(N2N=C(c3ccc(OC)cc3)CC2c2ccc(Br)cc2)=NC1=O (centres unmarked) [Compound 7h]", "218 to 220 °C"],
  ["CCOC(=O)C=C1SC(N2N=C(c3ccc(OC)cc3)CC2c2ccccc2)=NC1=O (centres unmarked) [Compound 7j]", "167 to 169 °C"]
]}

For each of the molecules below, state melting point.
1. CCOC(=O)C=C1SC(N2N=C(c3ccc(OC)cc3)CC2c2ccc(OC)cc2)=NC1=O (centres unmarked) [Compound 7k]
2. CCOC(=O)C=C1SC(N2N=C(c3ccc(OC)cc3)CC2c2ccc(OCc3ccccc3)c(OC)c2)=NC1=O (centres unmarked) [Compound 7g]
3. CCOC(=O)C=C1SC(N2N=C(c3ccccc3)CC2c2ccccc2)=NC1=O (centres unmarked) [Compound 7n]
4. CCOC(=O)C=C1SC(N2N=C(c3ccc(OC)cc3)CC2c2ccc(C)cc2)=NC1=O (centres unmarked) [Compound 7e]

Result:
1. 208 to 210 °C
2. 228 to 230 °C
3. 216 to 218 °C
4. 208 to 210 °C
